Cited source: ChEMBL document CHEMBL4513216

- experimentalDetails: Toxicity liver stage against HepG2, at 10uM
- Assay type: cell-based
- Parameters: test concentration 10 uM, cell line HepG2-A16-CD81EGFP
- experimentalContext: human, HepG2-A16-CD81EGFP cells; read-out: INHIBITION
endpointLabel: cytotoxicity at 10 µM (%)
Please state the figure in %; there is no need to write the unit.

Look over these answered cases.
compound: CCCc1cc(CNC2CCN(c3nc4ccccc4s3)CC2)on1
cytotoxicity at 10 µM / %: -4.34
//
compound: CN1CC(=O)N(c2cnn(C)c2)CC12CCN(Cc1nccn1C)C2 (centres undefined)
cytotoxicity at 10 µM / %: -15.3
//
compound: CCN1CCN(C[C@@H]2CN(c3ncc(Cl)cc3Cl)C[C@@H]2CO)CC1
cytotoxicity at 10 µM / %: -6

Problem: Bench note: what cytotoxicity at 10 µM did CCOCC1CN(C(=O)C2=CCCC2)Cc2cnn(CC)c21 (centres undefined) show?
Solution: 0.565

Problem: Bench note: what cytotoxicity at 10 µM did `C[C@H]1CN(C(=O)c2cscn2)C[C@@]12CCN(c1ccsc1)C2=O` show?
Solution: -80.7

Problem: Bench note: what cytotoxicity at 10 µM did `O=C(CN1CCC(c2ccnn2CCO)CC1)NCc1cccs1` show?
Solution: -10.4

Problem: Bench note: what cytotoxicity at 10 µM did Cc1ccccc1N1CCN(C(=O)c2cscn2)C(C)C1 (centres undefined) show?
Solution: 0.403

Problem: Bench note: what cytotoxicity at 10 µM did `CCN(Cc1ccc(OC)c(F)c1)Cc1nc2c(cnn2C)c(=O)[nH]1` show?
Solution: 2.2
